test system: HT29 colon; test: NCI tumour cell line growth inhibition, 48 h
Reported TGI by item:
The response must be a number in µM with no trailing unit.

Query: Given the entry CN1CN(c2ccccc2)C2(CCN(CC(C)(c3ccc(F)cc3)C3OCCCO3)CC2)C1=O (stereo unspecified) , report its measured TGI.
Response: 27.3

Query: Given the entry O=S(=O)(NCCNc1nccc(-c2c(-c3ccc(F)c(O)c3)nc3sccn23)n1)c1ccc(F)cc1 , report its measured TGI.
Response: 31.1

Query: Given the entry COc1ccc(/C=C/C(=O)/C=C/c2cc3ccccc3[nH]c2=O)cc1 , report its measured TGI.
Response: 5.94

***
Query: Given the entry COc1ccc(NC(=O)/C(=C/c2ccccc2)C(C)=O)cc1 , report its measured TGI.
Response: 28.5

Query: Given the entry O=S(=O)(Nc1nc2ccccc2nc1Nc1ccc2ccccc2c1)c1ccccc1 , report its measured TGI.
Response: 25.1
